# Tested on: ATP;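 note: ATP exposure 15 min at 22 °C before imaging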
# Method summary: switch fluorescence ratio, 500 uM ATP over buffer (Cy3 cluster intensity, sum of 5 cycles each) (fold (ratio)); higher = stronger signal-on switching upon ATP binding; sequences stand for … in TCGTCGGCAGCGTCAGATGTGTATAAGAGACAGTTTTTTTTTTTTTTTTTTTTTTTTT…TC
# Condition info: aptamer strand: ATP DNA aptamer (quencher-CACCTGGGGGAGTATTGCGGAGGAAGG + anchor), 100 nM annealed; ATP concentration: 500 uM
Test readout: switch fluorescence ratio
Reply: number alone, nothing else.

Past entries and their recorded results:
INSERT INTO results (chain_sequence, test_readout, measured_result) VALUES
  ('TCTATCTAGA', 'switch fluorescence ratio', 0.988),
  ('GGTGGATTGG', 'switch fluorescence ratio', 1.07),
  ('TTTGGCCTAG', 'switch fluorescence ratio', 1.02),
  ('GACGTCTGGG', 'switch fluorescence ratio', 0.986);

Entry `TAGGTAGGCT` ; switch fluorescence ratio = 0.974

Noted for `TTAGTATTTT` : its switch fluorescence ratio reads 1.02

Value of switch fluorescence ratio reported for the sequence `AGGGGGGTTA` is 0.984

// field: switch fluorescence ratio; key: `ATGGAGGTTG` ; value = 1.03

So, `TATATATTTG` ? Its switch fluorescence ratio was 1.03
